Target: T1, human Trop-2-His protein (human, UniProt P09758 27-274)
T1 construct: extracellular domain; Assay paragraphs say only 'Trop-2-His'; also called hTrop-2; Kactus Cat #TRP-HM121; not shown: His tag
T1 sequence (looked up): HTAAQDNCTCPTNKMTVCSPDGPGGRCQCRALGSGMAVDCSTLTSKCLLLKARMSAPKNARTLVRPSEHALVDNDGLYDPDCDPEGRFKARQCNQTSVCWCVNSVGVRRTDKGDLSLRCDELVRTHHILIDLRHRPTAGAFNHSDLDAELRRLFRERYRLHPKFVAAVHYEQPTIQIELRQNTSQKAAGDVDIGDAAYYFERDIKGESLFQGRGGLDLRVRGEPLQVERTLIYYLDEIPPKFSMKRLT
Assay: BLI (Gator Prime), LEM supernatant Ab on HFC probe
Consider the following binders; for each one, report its Kd.
Give the value, in units of nM, as a plain number.

Per the record, 65D5 (antibody, V domains shown, Rabbit-derived clone; LEM construct: VH + rabbit IgG CH1 + human IgG1 CH2-CH3) VH: QEQLKESGGGLVQPGGSLKLSCKASGFDFNAYGVSWVRQAPGKGLEWIAYIYPAFHNTYYATWVNGRFTISSHNAQNTLYLQLNTLTAADTATYFCARDAGTTDYNFNLWGPGTLVTVSS VL: DIVMTQTPASVSEPVGGTVTIKCQASQSISSYLAWYQQKPGQPPKLLIYEATKLTSGVSSRFSGSGYGTEFTLTISGVECADAATYYCQQALTVGDVDNPFGGGSEVVVK has Kd of 0.656

Record 66A1 (antibody, V domains shown, Rabbit-derived clone; LEM construct: VH + rabbit IgG CH1 + human IgG1 CH2-CH3) VH: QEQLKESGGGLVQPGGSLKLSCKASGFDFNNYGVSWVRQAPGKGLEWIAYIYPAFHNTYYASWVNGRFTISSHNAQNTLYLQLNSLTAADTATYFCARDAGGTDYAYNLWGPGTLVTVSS VL: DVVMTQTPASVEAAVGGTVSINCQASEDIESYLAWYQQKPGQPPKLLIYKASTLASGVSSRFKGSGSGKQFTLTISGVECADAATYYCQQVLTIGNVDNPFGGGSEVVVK . Reported Kd: 0.426

Lab book: Kd of 2H3 (antibody, V domains shown, Rabbit-derived clone; LEM construct: VH + rabbit IgG CH1 + human IgG1 CH2-CH3) VH: QEQLKESGGGLGQPGGSLTLSCKASGFDFNNYGVSWVRQAPGKGLEWIGYIYPAYHNTYYATWVNGRFTISSHNAQNTLYLQLNTLTAADTATYFCARDTGTTDYNFNLWGPGTLVTVSS VL: DVVMTQTPASVEVAVGGTVTIKCQASEDIESYLAWYQQKPGQPPKLLIYEASKLASGVSSRFSGGGYGTEFTLTISGVECADAATYYCQQALTVGNVDNPFGGGSEVVVK noted as 0.269
